experiment: MTT assay (cytotoxicity), LNCaP cells
Type: cell-based
reported conditions: human, LNCaP cells, 72 h, Table 2.4
endpoint name: IC50 at 72 h

For every item in the list below, what is its measured IC50 at 72 h?
1. O=C(N/C=C/c1cccs1)Nc1ccc([N+](=O)[O-])c(C(F)(F)F)c1
2. O=C(N/C=C/c1cccc(C(F)(F)F)c1)NCc1ccc([N+](=O)[O-])cc1
3. N#Cc1ccc(NC(=O)NCC(=O)c2cccc(C(F)(F)F)c2)cc1C(F)(F)F
4. O=C(N/C=C/c1cccc(C(F)(F)F)c1)NCc1cccc(C(F)(F)F)c1
5. N#Cc1ccc(NC(=O)N/C=C/c2cccs2)cc1
6. CC(C)(C)OC(=O)n1cc(/C=C/NC(=O)Nc2ccc([N+](=O)[O-])c(C(F)(F)F)c2)c2ccccc21
7. O=C(N/C=C/c1cccc(C(F)(F)F)c1)NCCc1cccc(C(F)(F)F)c1

Response:
3.2 µM
7.5 µM
7.3 µM
7.9 µM
5 µM
1.8 µM
7.1 µM

For every item in the list below, what is its measured IC50 at 72 h?
1. O=C(N/C=C/c1cccs1)Nc1ccc2c(c1)OCO2
2. CC(C)(C)OC(=O)n1cnc(/C=C/NC(=O)Nc2ccc([N+](=O)[O-])c(C(F)(F)F)c2)c1
3. O=C(N/C=C/c1ccc2c(c1)OCO2)Nc1ccc([N+](=O)[O-])c(C(F)(F)F)c1

Response:
1. > 20 µM
2. 4 µM
3. 14.6 µM

---

target or system: endogenous AR T877A mutant in LNCaP cells (Homo sapiens, UniProt P10275, T878A)
Construct: LNCaP cells, which express endogenous AR T877A mutant; endogenous in cells
Sequence (P10275 1-920 T878A): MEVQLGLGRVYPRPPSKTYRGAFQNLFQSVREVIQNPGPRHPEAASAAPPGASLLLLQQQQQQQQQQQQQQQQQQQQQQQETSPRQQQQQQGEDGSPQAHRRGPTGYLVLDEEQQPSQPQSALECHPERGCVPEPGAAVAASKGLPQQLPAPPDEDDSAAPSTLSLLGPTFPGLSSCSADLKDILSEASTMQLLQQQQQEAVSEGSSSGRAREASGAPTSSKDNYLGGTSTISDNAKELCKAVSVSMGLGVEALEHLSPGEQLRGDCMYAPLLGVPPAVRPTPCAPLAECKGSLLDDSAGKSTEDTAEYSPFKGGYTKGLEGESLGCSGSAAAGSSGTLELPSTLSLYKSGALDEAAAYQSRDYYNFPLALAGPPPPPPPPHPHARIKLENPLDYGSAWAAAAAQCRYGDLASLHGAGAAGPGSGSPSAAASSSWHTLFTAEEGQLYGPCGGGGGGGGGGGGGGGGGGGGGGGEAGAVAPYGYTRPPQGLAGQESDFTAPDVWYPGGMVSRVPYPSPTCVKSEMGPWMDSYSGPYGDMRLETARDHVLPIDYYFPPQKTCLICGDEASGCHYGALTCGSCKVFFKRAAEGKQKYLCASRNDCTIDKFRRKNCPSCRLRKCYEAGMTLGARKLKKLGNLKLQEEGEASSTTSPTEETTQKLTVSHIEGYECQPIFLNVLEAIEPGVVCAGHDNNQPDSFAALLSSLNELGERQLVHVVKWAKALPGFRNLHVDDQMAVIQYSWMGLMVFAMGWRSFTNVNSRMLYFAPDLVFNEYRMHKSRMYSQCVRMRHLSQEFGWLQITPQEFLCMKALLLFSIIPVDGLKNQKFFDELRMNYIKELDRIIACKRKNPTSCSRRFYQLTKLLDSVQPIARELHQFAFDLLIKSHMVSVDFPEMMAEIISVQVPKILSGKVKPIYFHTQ
experiment: PSA-luc reporter assay in LNCaP cells (endogenous AR T877A mutant)
reported conditions: FIG. 11
endpoint name: IC50

// recorded IC50 for O=C(N/C=C/c1cccc(C(F)(F)F)c1)Nc1ccncn1 : ~1000 nM
